Hey, just so you know, these numbers are from patent US20220089647A1.

Molecular target: T1, human integrin αvβ5 (human, UniProt P06756 31-992; P18084 24-719, limits assumed)
T1 construct: Heterodimer flowed as analyte at 30, 100, 300 and 1,000 nM in HEPES buffer with 5 mM MgCl2
T1 sequence (P06756 31-992 limits assumed, chain 1 of 2): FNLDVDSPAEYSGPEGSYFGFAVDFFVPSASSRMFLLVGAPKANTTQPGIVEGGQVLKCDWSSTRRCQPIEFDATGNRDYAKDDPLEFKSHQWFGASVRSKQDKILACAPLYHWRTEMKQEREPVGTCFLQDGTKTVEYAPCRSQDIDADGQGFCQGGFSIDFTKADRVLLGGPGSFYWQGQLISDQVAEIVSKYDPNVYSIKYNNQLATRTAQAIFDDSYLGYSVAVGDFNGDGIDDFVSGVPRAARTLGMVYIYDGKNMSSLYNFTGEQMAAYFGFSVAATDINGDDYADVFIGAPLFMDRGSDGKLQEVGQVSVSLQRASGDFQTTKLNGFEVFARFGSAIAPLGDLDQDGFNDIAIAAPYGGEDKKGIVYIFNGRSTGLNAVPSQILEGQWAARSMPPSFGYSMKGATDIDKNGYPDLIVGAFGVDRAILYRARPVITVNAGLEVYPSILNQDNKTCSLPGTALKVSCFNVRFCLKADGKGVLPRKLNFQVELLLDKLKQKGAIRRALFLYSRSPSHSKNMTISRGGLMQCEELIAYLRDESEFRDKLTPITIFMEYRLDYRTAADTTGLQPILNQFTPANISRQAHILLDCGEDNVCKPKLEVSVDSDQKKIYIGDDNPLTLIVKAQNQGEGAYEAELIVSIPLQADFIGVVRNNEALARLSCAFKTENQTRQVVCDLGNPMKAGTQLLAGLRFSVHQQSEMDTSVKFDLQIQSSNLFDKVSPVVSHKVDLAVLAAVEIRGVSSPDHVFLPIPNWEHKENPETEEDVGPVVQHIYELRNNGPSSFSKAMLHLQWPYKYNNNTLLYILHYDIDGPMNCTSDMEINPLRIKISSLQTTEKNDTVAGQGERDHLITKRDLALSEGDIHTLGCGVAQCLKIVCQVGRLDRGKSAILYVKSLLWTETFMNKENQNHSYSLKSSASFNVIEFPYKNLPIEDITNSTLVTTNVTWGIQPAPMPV
T1 sequence (P18084 24-719 limits assumed, chain 2 of 2): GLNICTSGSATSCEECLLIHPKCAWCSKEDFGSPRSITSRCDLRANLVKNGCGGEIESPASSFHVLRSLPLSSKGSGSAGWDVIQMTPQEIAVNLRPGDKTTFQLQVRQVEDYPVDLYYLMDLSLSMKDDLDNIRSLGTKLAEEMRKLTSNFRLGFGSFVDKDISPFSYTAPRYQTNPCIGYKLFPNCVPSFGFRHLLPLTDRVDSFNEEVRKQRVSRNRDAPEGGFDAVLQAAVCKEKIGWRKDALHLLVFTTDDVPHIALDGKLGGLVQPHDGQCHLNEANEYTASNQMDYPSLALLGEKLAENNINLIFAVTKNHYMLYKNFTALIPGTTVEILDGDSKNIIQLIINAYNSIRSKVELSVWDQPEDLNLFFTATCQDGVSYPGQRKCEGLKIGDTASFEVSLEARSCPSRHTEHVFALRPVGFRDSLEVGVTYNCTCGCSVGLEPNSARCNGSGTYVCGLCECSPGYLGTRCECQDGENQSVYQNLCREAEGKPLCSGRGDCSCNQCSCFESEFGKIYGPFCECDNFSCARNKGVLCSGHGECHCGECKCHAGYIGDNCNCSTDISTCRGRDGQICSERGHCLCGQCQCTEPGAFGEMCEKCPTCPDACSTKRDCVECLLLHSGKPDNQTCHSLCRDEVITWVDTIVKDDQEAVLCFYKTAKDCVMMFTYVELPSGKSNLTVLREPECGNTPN
Test: SPR, Biacore 3000, peptide immobilised; A = KD 50 nM or less
Experimental: However, only for the cyclic peptides 125, 126, and 127, in which the number of lysine residues having an amino group as the immobilizing functional group was zero, the amount of the sample solution to be supplied to the sensor chip was set to 500 μL instead of 20 μL. Further, 70 μL of the mixed aqueous solution of 0.2 M EDC and 0.04 M NHS was added to another flow channel of the same sensor chip without immobilizing the sample, and then blocking treatment and washing treatment were carried out. […]
Positions of bridges follow the written chain, without caps; N, C: chain ends. Non-standard residues stand in square brackets, D forms with d. No end group written: not given here. COCH2 = acetyl group that carries the bridge; hCys = N[C@@H](CCS)C(=O)O; Dab = NCC[C@H](N)C(=O)O
endpoint: dissociation constant (KD)

stdin: Answer with the recorded dissociation constant (KD) for the binder listed here: KKKA[hCys]IPRGDNYR[Dab](COCH2)D (thioether 5-14) [Cyclic peptide 30]
stdout: ≤ 50 nM

stdin: Answer with the recorded dissociation constant (KD) for the binder listed here: KKKA[hCys]LPRGDNYR[Dab](COCH2)D (thioether 5-14) [Cyclic peptide 31]
stdout: ≤ 50 nM

stdin: Answer with the recorded dissociation constant (KD) for the binder listed here: KKK[hCys]IPRGDNFR[Dab](COCH2)A (thioether 4-13) [Cyclic peptide 3]
stdout: ≤ 50 nM
